# MEASUREMENT TARGET: HCV NS5B RdRp genotype 1b (Hepatitis C virus genotype 1b, UniProt Q9WMX2)
# Construct: The protein was expressed with an 18 amino acid C-terminal truncation to enhance the solubility; made in house; host or cells: E. coli BL21(DE3), pET21a vector
# Sequence (Q9WMX2 2420-2992): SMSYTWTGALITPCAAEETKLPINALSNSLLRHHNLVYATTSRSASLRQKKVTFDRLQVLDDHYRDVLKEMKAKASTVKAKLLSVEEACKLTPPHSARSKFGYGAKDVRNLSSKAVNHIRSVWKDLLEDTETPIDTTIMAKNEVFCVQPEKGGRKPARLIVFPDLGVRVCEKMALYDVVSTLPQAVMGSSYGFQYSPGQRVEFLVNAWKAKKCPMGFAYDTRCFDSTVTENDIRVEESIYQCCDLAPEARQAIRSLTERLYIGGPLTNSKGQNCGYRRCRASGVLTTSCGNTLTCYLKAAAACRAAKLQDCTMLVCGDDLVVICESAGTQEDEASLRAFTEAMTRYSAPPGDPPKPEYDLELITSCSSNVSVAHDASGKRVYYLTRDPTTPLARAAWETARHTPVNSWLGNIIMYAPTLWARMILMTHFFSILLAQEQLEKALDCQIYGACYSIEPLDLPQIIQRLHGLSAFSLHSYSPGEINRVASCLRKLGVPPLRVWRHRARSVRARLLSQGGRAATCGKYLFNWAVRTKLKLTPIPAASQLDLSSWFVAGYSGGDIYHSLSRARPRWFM
# ASSAY REMARKS: HCV NS5B RdRp enzyme assay (standard / modified)
# Type: biochemical
# TEST CONTEXT: Table 1; HCV NS5B genotype 1b
# Experimental: HCV NS5B RdRp cloning, expression, and purification. The cDNA encoding the NS5B protein of HCV, genotype 1b, was cloned into the pET21a expression vector. The protein was expressed with an 18 amino acid C-terminal truncation to enhance the solubility. […] Standard HCV NS5B RdRp enzyme assay. […] Plates were read on a Packard Top Count NXT after >1 hr incubation at room temperature. […] IC50 values for compounds were determined using seven different [I]. […]
QUANTITY MEASURED: IC50

The cases that follow already have their IC50 on record.
INSERT INTO results (molecule, measurement_target, reported_measurement) VALUES
  ('CNC(=O)c1c2cc(-c3cccc(C(=O)NC(C)(C)C)c3)ccc2nn1-c1ccc(F)cc1', 'HCV NS5B RdRp genotype 1b (Hepatitis C virus genotype 1b, UniProt Q9WMX2)', '1000 to 10000 nM'),
  ('CNC(=O)c1c(-c2ccc(F)cc2)nn2cc(N(CCO)S(C)(=O)=O)c(-c3cccc(C(=O)NC(C)(C)c4ccccc4)c3)cc12', 'HCV NS5B RdRp genotype 1b (Hepatitis C virus genotype 1b, UniProt Q9WMX2)', '2 to 250 nM'),
  ('CNC(=O)c1c(-c2ccc(F)cc2)sc2ccc(-c3cccc(C(=O)NC4(c5ccccc5)CC4)c3)cc12', 'HCV NS5B RdRp genotype 1b (Hepatitis C virus genotype 1b, UniProt Q9WMX2)', '250 to 1000 nM'),
  ('CNC(=O)c1c(-c2ccc(F)cc2)nn2ccc(-c3cc(C(=O)NC4(c5ccccn5)CC4)ccc3C)cc12 [drawing 88]', 'HCV NS5B RdRp genotype 1b (Hepatitis C virus genotype 1b, UniProt Q9WMX2)', '2 to 250 nM'),
  ('CCN(c1cn2nc(-c3ccc(F)cc3)c(C(=O)NC)c2cc1-c1cccc(C(=O)NC2(c3ccccn3)CC2)c1)S(C)(=O)=O', 'HCV NS5B RdRp genotype 1b (Hepatitis C virus genotype 1b, UniProt Q9WMX2)', '2 to 250 nM');

Provide reported IC50 for each item, in the same order as listed.
1. CNC(=O)c1c(-c2ccc(F)cc2)nn2ccc(-c3cc(C(=O)NC4(c5ccccc5)CC4)ccc3C)cc12 [drawing 87]
2. CNC(=O)c1c(-c2ccc(F)cc2)nn2cc(NC(=O)OC(C)(C)C)ccc12
3. CNC(=O)c1c2cc(-c3cc(C(=O)NC(C)(C)c4ccccc4)ccc3Cl)ccc2nn1-c1ccc(F)cc1

Output:
["2 to 250 nM", "> 10000 nM", "2 to 250 nM"]

Need IC50 for each of these molecules.
1. CNC(=O)c1c(-c2ccc(F)cc2)nn2ccc(NS(=O)(=O)c3cccc(OC)c3)cc12
2. CNC(=O)c1c(-c2ccc(F)cc2)[nH]c2ccc(-c3cccc(C(=O)NC(C)(C)c4ccccc4)c3)cc12 [drawing 80]

Output:
1. > 10000 nM
2. 250 to 1000 nM

Quick request: IC50 for each listed item, please.
1. CNC(=O)c1c(-c2ccc(F)cc2)nn2cc(N)ccc12
2. CNC(=O)c1cccc(-c2ccc3c(C(=O)NC)c(-c4ccccc4)nn3c2)c1
3. CNC(=O)c1c(-c2ccc(F)cc2)oc2ncc(-c3cc(C(=O)NC4(c5ccccn5)CC4)ccc3C)cc12 [drawing 116]
4. CNC(=O)c1c2cc(-c3cccc(C(=O)NC4(c5ccccn5)CC4)c3)ccc2nn1-c1ccc(F)cc1
5. CNC(=O)c1c(-c2ccc(F)cc2)oc2ccc(-c3cc(C(=O)NC4(c5ccccn5)CC4)ccc3C)nc12

Output:
> 10000 nM
> 10000 nM
2 to 250 nM
1000 to 10000 nM
2 to 250 nM

---

# MEASUREMENT TARGET: HCV NS5B RdRp genotype 1b (Hepatitis C virus genotype 1b, UniProt Q9WMX2)
# Construct: The protein was expressed with an 18 amino acid C-terminal truncation to enhance the solubility; made in house; host or cells: E. coli BL21(DE3), pET21a vector
# ASSAY REMARKS: HCV NS5B RdRp enzyme assay (standard / modified)
# Type: biochemical
# TEST CONTEXT: Table 1; HCV NS5B genotype 1b
pIC50: −log10 of the molar value.
QUANTITY MEASURED: pIC50

In the examples that follow, each entry is paired with its recorded pIC50.
INSERT INTO assay_data (compound, quantity_measured, reported_measurement) VALUES
  ('CNC(=O)c1c(-c2ccc(F)cc2)nn2ccc(-c3cccc(C(=O)NC4(c5ccccc5)CCC4)c3)cc12', 'pIC50', '6.60 to 8.70'),
  ('CNC(=O)c1c(-c2ccc(F)cc2)nn2ccc(-c3cc(C(=O)NC4(c5ccccn5)CC4)ccc3C)c(F)c12 [drawing 130]', 'pIC50', '6.60 to 8.70'),
  ('COC(=O)c1c(-c2ccccc2)nn2ccc(-c3cccc(C(=O)NC(C)(C)c4ccccc4)c3)cc12', 'pIC50', '< 5.00'),
  ('CNC(=O)c1c(-c2ccc(F)cc2)nn2ccc(-c3cccc(C(=O)NC(C)(C)C)c3)cc12', 'pIC50', '6.00 to 6.60'),
  ('CNC(=O)c1c(-c2ccc(F)cc2)nn2ccc(-c3cc(C(=O)NC4(c5ncccn5)CC4)c(OC)cc3C)c(F)c12', 'pIC50', '6.60 to 8.70');

Provide pIC50 values for the following items, in order.
1. CCc1ccccc1-c1ccc2c(C(=O)NC)c(-c3ccccc3)nn2c1
2. CNC(=O)c1c(-c2ccc(F)cc2)nc2ccc(-c3cccc(C(=O)NC(C)(C)c4ccccc4)c3)cn12
3. CNC(=O)c1c2cc(-c3cccc(C(=O)NC(C)(C)c4ccccc4)c3)ccc2nn1-c1ccc(F)cc1

Output:
1. < 5.00
2. 6.60 to 8.70
3. 6.60 to 8.70

---

# MEASUREMENT TARGET: HCV NS5B RdRp genotype 1b (Hepatitis C virus genotype 1b)
# Construct: The protein was expressed with an 18 amino acid C-terminal truncation to enhance the solubility; made in house; host or cells: E. coli BL21(DE3), pET21a vector
# ASSAY REMARKS: HCV NS5B RdRp enzyme assay (standard / modified)
# Format: biochemical
# TEST CONTEXT: Table 1; HCV NS5B genotype 1b
# Procedure: HCV NS5B RdRp cloning, expression, and purification. The cDNA encoding the NS5B protein of HCV, genotype 1b, was cloned into the pET21a expression vector. The protein was expressed with an 18 amino acid C-terminal truncation to enhance the solubility. […] Standard HCV NS5B RdRp enzyme assay. […] Plates were read on a Packard Top Count NXT after >1 hr incubation at room temperature. […] IC50 values for compounds were determined using seven different [I]. […]
pIC50: −log10 of the molar value.
QUANTITY MEASURED: pIC50

INSERT INTO assay_data (molecule, quantity_measured, reported_measurement) VALUES
  ('CNC(=O)c1c(-c2ccc(F)cc2)nc2ccc(-c3cc(C(=O)NC(C)(C)c4ccccc4)ccc3OC)cn12', 'pIC50', '6.60 to 8.70'),
  ('CNC(=O)c1c(-c2ccc(F)cc2)nn2cc(-c3ccc(OC)cc3)ccc12', 'pIC50', '< 5.00'),
  ('CNC(=O)c1c(-c2ccc(F)cc2)nn2ccc(-c3cc(C(=O)NC4(c5ccccc5)CCC4)ccc3C)cc12', 'pIC50', '6.60 to 8.70'),
  ('CNC(=O)c1c(-c2ccc(F)cc2)oc2ncc(-c3cccc(C(=O)NC(C)(C)c4ccccc4)c3)cc12', 'pIC50', '6.60 to 8.70'),
  ('CNC(=O)c1c(-c2ccc(F)cc2)nn2cccc(N)c12', 'pIC50', '< 5.00');

Please go through the list and note pIC50 for each compound.
1. CNC(=O)c1c(-c2ccc(F)cc2)nn2ccc(-c3cc(C(=O)NC4(c5ncccn5)CC4)ccc3C)c(F)c12
2. CNC(=O)c1c(-c2ccc(F)cc2)sc2ccc(-c3cccc(C(=O)NC4(c5ccccc5)CCC4)c3)cc12
3. CNC(=O)c1c(-c2ccc(F)cc2)oc2ncc(-c3cc(C(=O)NC4(c5ncccn5)CC4)ccc3C)cc12

Output:
["6.60 to 8.70", "6.60 to 8.70", "6.60 to 8.70"]

---

# MEASUREMENT TARGET: HCV NS5B RdRp genotype 1b (Hepatitis C virus genotype 1b, UniProt Q9WMX2)
# Construct: The protein was expressed with an 18 amino acid C-terminal truncation to enhance the solubility; made in house; host or cells: E. coli BL21(DE3), pET21a vector
# ASSAY REMARKS: HCV NS5B RdRp enzyme assay (standard / modified)
# Format: biochemical
# TEST CONTEXT: Table 1; HCV NS5B genotype 1b
QUANTITY MEASURED: IC50

Recorded IC50, per entry:
INSERT INTO measurements (compound, reported_measurement) VALUES
  ('CNC(=O)c1c(-c2ccc(F)cc2)nn2ccc(-c3cc(C(=O)NC4(C)CC4)c(OC)cc3C)c(F)c12', '2 to 250 nM'),
  ('CNC(=O)c1c(-c2ccccc2)nn2cc(-c3ccccc3C)ccc12', '> 10000 nM'),
  ('CNC(=O)c1c(-c2ccc(F)cc2)nn2cc(N(CCO)S(C)(=O)=O)c(-c3cccc(C(=O)NC4(c5ccccn5)CC4)c3)cc12 [drawing 86]', '2 to 250 nM'),
  ('CNC(=O)c1c(-c2ccc(F)cc2)sc2ccc(-c3cccc(C(=O)NC(C)(C)c4ccccc4)c3)cc12', '2 to 250 nM'),
  ('CNC(=O)c1c(-c2ccc(F)cc2)nn2ccc(-c3cc(C(=O)NC(C)(C)C)ccc3OC)cc12', '2 to 250 nM');

Fill in IC50 for each of the 3 compounds listed.
1. CNC(=O)c1c(-c2ccc(F)cc2)nn2ccc(NC(=O)c3ccccc3OC)cc12
2. CNC(=O)c1c(-c2ccc(F)cc2)n(C)c2ccc(-c3cccc(C(=O)NC(C)(C)c4ccccc4)c3)cc12
3. CNC(=O)c1c(-c2ccc(F)cc2)nn2cc(N(CCOC)S(C)(=O)=O)c(-c3cccc(C(=O)NC(C)(C)c4ccccc4)c3)cc12

Output:
> 10000 nM
> 10000 nM
2 to 250 nM

Record IC50 per entry; entries follow.
1. CCN(c1cn2nc(-c3ccc(F)cc3)c(C(=O)NC)c2cc1-c1ccccc1)S(C)(=O)=O
2. CCN(c1cn2nc(-c3ccc(F)cc3)c(C(=O)NC)c2cc1C1CCCC1)S(C)(=O)=O
3. CNC(=O)c1c(-c2ccc(F)cc2)nn2ccc(-c3cc(C(=O)NC4(c5ccccc5)CC4)ccc3C)c(F)c12 [drawing 127]

Output:
2 to 250 nM
250 to 1000 nM
2 to 250 nM
